Test system: recombinant NL4-3 virus (nef section replaced with Renilla luciferase gene) in MT-2 cells
measurement.protocol: HIV cell culture assay (antiviral activity, luciferase readout)
Type: cell-based
protocol.conditions: Renilla, NL43, MT-2 cells infected for 4-5 days with recombinant NL4-3 Renilla luciferase virus, serial dilutions of compound
readout: pEC50
The quantity pEC50 is defined as the negative base-10 logarithm of the molar concentration.

// worked examples, pEC50 included
• Cn1nc(NS(C)(=O)=O)c2c(Cl)ccc(-n3c([C@H](Cc4cc(F)cc(F)c4)NC(=O)Cn4nc(C(F)F)c5c4C(F)(F)[C@@H]4C[C@H]54)nc4cc(-c5ccccc5-c5ccccc5)ccc4c3=O)c21 (atropisomer, axis not shown; (aR)) = 8.34
• Cn1nc(NS(C)(=O)=O)c2c(Cl)ccc(-n3c([C@H](Cc4cc(F)cc(F)c4)NC(=O)Cn4nc(C(F)F)c5c4C(F)(F)[C@@H]4C[C@H]54)nc4cc(-c5ccc(Cl)c(F)c5)ccc4c3=O)c21 = 8.11
• CS(=O)(=O)Nc1nn(CC(F)F)c2c(-n3c([C@H](Cc4cc(F)cc(F)c4)NC(=O)Cn4nc(C(F)F)c5c4C(F)(F)[C@@H]4C[C@H]54)nc4cc(-c5ccccc5F)ccc4c3=O)ccc(Cl)c12 = 9.41
• Cn1nc(NS(C)(=O)=O)c2c(Cl)ccc(-n3c([C@H](Cc4cc(F)cc(F)c4)NC(=O)Cn4nc(C(F)F)c5c4C(F)(F)[C@@H]4C[C@H]54)nc4cc(-c5ccccc5Cl)ccc4c3=O)c21 (atropisomer, axis not shown; (aR)) = 9.16

**Query** Fill in the blank: the reported pEC50 of "O=C(Cn1nc(C(F)F)c2c1C(F)(F)[C@@H]1C[C@H]21)N[C@@H](Cc1cc(F)cc(F)c1)c1nc2cc(-c3ccc(F)cc3F)ccc2c(=O)n1-c1ccc(S(=O)(=O)N2CCOCC2)cc1" is ____.
**Result** 8.10

**Query** Fill in the blank: the reported pEC50 of Cc1ncc(-c2ccc3c(=O)n(-c4ccc(Cl)c5c(NS(C)(=O)=O)nn(C)c45)c([C@H](Cc4cc(F)cc(F)c4)NC(=O)Cn4nc(C(F)F)c5c4C(F)(F)[C@@H]4C[C@H]54)nc3c2)cn1 (atropisomer, axis not shown; (aR)) is ____.
**Result** 10.52
